- System: lymphoma cell lines (2-5 cell lines)
- testMethodNotes: Synergy of compound (1-1) with other agents, MTT, Chou-Talalay combination index
- Format: cell-based
- experimentalContext: in combination with compound (1-1), 72 h
reportedProperty: Chou-Talalay combination index (CI), median
# print the numeric value only

Previously resolved entries follow.
| molecule | endpointValue |
| --- | --- |
| CO[C@H]1C[C@@H]2CC[C@@H](C)[C@@](O)(O2)C(=O)C(=O)N2CCCC[C@H]2C(=O)O[C@H]([C@H](C)C[C@@H]2CC[C@@H](OCCO)[C@H](OC)C2)CC(=O)[C@H](C)/C=C(\C)[C@@H](O)[C@@H](OC)C(=O)[C@H](C)C[C@H](C)/C=C/C=C/C=C/1C [Everolimus] | 0.1 |
| O=C(CCCCCCC(=O)Nc1ccccc1)NO [Vorinostat, suberoylanilide hydroxamic acid] | 0.5 |
| CC[C@H](Nc1ncnc2[nH]cnc12)c1nc2cccc(F)c2c(=O)n1-c1ccccc1 [idelalisib] | 0.5 |
| COc1cccc2c1C(=O)c1c(O)c3c(c(O)c1C2=O)C[C@@](O)(C(=O)CO)C[C@@H]3O[C@H]1C[C@H](N)[C@H](O)[C@H](C)O1 [doxorubicin] | 0.83 |

Consider now this further molecule.
I'd like to know its Chou-Talalay combination index (CI), median. The molecule in question is Nc1cccc2c1CN(C1CCC(=O)NC1=O)C2=O (centres unmarked) [lenalidomide] 0.7

* * *

- testMethodNotes: Antiproliferative activity by MTT
- Type: cell-based
- experimentalContext: B-cell, cell lines with lower sensitivity (8 of 22 DLBCL cell lines)
pIC50: −log10 of the molar value.
reportedProperty: pIC50

I'd like to know its pIC50. The compound in question is Cc1sc2c(c1C)C(c1ccc(Cl)cc1)=N[C@@H](CC(=O)Nc1ccc(O)cc1)c1nnc(C)n1-2 [Compound (1-1), dihydrate] < 6.30
